Each recorded value in this set is attributed to paper PMC11528066.

Test: Biodistribution (γ-counter)
Type: in vivo, BALB/C nude mice
Details: male, BALB/C nude, mouse, tumor and blood, iv, total radioactivity; 90 min p.i.; mean ± SD, n = 3; read-out: Tumor/Blood ratio
Protocol: Micro-PET imaging was conducted using an Inveon PET scanner (Siemens, Germany). Dynamic PET examine were acquired over the first 60 min following the simultaneous injection of 7.4 to 9.25 MBq (200 to 250 μCi) of [^68Ga]Ga-HN11-1 and [^68Ga]Ga-HN11-2. […] The samples were counted using the γ-counter for determining the %ID/g, presented as mean ± standard deviation (SD). […]
Peptide text beside a SMILES is read from it. * marks the point of attachment. NOTA = O=C(O)CN1CCN(CC(=O)O)CCN(CC(=O)*)CC1; AEEEA = NCCOCCOCCOCC(=O)O
Readout: tissue to tissue ratio at 1.5 h

# Compound, Data value
data = [
    ("CC[C@H](C)[C@H](NC(=O)[C@H](CCCNC(=N)N)NC(=O)CNC(=O)[C@H](CCC(=O)O)NC(=O)[C@H](CC(N)=O)NC(=O)[C@H](Cc1ccc(O)cc1)NC(=O)[C@H](CCCNC(=N)N)NC(=O)[C@H](Cc1ccc(O)cc1)NC(=O)[C@H](Cc1c[nH]cn1)NC(=O)COCCOCCOCCNC(=O)CN1CCN(CC(=O)O)CCN(CC(=O)O)CC1)C(=O)N[C@@H](CCCNC(=N)N)C(=O)N[C@@H](CC(N)=O)C(=O)O [[^68Ga]Ga-HN11-1, metal not drawn] ({NOTA-AEEEA}-HYRYNEGRIRN-OH)", 2.58),
]

---

Assay: Biodistribution (γ-counter)
Format: in vivo, BALB/C nude mice
Conditions: male, BALB/C nude, mouse, large intestine, iv, total radioactivity, 60 min p.i.; mean ± SD, n = 3; read-out: Large intestine uptake
Peptide text beside a SMILES is read from it. * marks the point of attachment. NOTA = O=C(O)CN1CCN(CC(=O)O)CCN(CC(=O)*)CC1; AEEEA = NCCOCCOCCOCC(=O)O

# Molecule, tissue uptake at 1 h
data = [
    ("CC[C@H](C)[C@H](NC(=O)[C@H](CCCNC(=N)N)NC(=O)CNC(=O)[C@H](CCC(=O)O)NC(=O)[C@H](CC(N)=O)NC(=O)[C@H](Cc1ccc(O)cc1)NC(=O)[C@H](CCCNC(=N)N)NC(=O)[C@H](Cc1ccc(O)cc1)NC(=O)[C@H](Cc1c[nH]cn1)NC(=O)COCCOCCOCCNC(=O)CN1CCN(CC(=O)O)CCN(CC(=O)O)CC1)C(=O)N[C@@H](CCCNC(=N)N)C(=O)N[C@@H](CC(N)=O)C(=O)O [[^68Ga]Ga-HN11-1, metal not drawn] ({NOTA-AEEEA}-HYRYNEGRIRN-OH)", "0.21 %ID/g"),
]

---

Assay: Biodistribution (γ-counter)
Format: in vivo, BALB/C nude mice
Conditions: male, BALB/C nude, mouse, tumor and heart, iv, total radioactivity; 60 min p.i.; mean ± SD, n = 3; read-out: Tumor/Heart ratio
Procedure: Micro-PET imaging was conducted using an Inveon PET scanner (Siemens, Germany). Dynamic PET examine were acquired over the first 60 min following the simultaneous injection of 7.4 to 9.25 MBq (200 to 250 μCi) of [^68Ga]Ga-HN11-1 and [^68Ga]Ga-HN11-2. […] The samples were counted using the γ-counter for determining the %ID/g, presented as mean ± standard deviation (SD). […]
Peptide text beside a SMILES is read from it. * marks the point of attachment. NOTA = O=C(O)CN1CCN(CC(=O)O)CCN(CC(=O)*)CC1; AEEEA = NCCOCCOCCOCC(=O)O

# Compound, tissue to tissue ratio at 1 h
rows = [
    ("CC[C@H](C)[C@H](NC(=O)[C@H](CCCNC(=N)N)NC(=O)CNC(=O)[C@H](CCC(=O)O)NC(=O)[C@H](CC(N)=O)NC(=O)[C@H](Cc1ccc(O)cc1)NC(=O)[C@H](CCCNC(=N)N)NC(=O)[C@H](Cc1ccc(O)cc1)NC(=O)[C@H](Cc1c[nH]cn1)NC(=O)COCCOCCOCCNC(=O)CN1CCN(CC(=O)O)CCN(CC(=O)O)CC1)C(=O)N[C@@H](CCCNC(=N)N)C(=O)N[C@@H](CC(N)=O)C(=O)O [[^68Ga]Ga-HN11-1, metal not drawn] ({NOTA-AEEEA}-HYRYNEGRIRN-OH)", 12.7),
]
